// provenance: ChEMBL document CHEMBL2321725

Record form. Attribute: IC50. Fill in for each entry.
# assaySystem: Cyclin-dependent kinase 4/cyclin D1 (Homo sapiens, UniProt P11802)
# Sequence (P11802 whole entry): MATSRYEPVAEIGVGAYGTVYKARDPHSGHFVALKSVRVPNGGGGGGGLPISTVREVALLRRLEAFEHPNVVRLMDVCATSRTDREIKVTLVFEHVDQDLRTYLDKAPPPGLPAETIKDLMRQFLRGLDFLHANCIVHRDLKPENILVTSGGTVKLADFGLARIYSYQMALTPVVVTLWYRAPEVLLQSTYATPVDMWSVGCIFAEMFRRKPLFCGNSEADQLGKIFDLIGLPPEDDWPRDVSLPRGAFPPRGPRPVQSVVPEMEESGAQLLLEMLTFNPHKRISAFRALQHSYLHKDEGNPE
# Sequence (P24385 whole entry, further chain): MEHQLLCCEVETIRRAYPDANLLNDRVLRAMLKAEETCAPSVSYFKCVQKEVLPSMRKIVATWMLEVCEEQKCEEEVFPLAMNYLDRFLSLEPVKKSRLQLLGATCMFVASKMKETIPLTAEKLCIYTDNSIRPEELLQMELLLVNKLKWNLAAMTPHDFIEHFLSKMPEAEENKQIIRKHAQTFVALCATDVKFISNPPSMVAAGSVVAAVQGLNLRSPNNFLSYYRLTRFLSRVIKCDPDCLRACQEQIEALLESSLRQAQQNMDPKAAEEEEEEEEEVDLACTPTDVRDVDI
# testMethodNotes: Inhibition of human recombinant CDK4/Cyclin D1 using fluoresceinyl-Ahx-Pro-Val-Lys-Arg-Arg-Leu-(3ClPhe)-Gly tracer peptide as substrate after 45 mins by fluorescent polarization binding assay
Peptide text beside a SMILES is read from it. * marks the point of attachment. X17 = Cc1cc(C(=O)*)nn1-c1cc(Cl)cc(Cl)c1; X11 = Cc1cc(C(=O)*)nn1-c1ccc(Cl)cc1; X16 = Cc1nc(C(=O)*)nn1-c1cccc(Cl)c1; X8 = Cn1cc(C(=O)*)nc1-c1ccccc1

Examples with answers:
CC[C@H](C)[C@H](NC(=O)[C@H](CC(C)C)NC(=O)[C@H](CCCNC(=N)N)NC(=O)c1cc(C)n(-c2ccc(Cl)cc2)n1)C(=O)N[C@@H](Cc1ccccc1)C(N)=O (X11-RLIF-NH2); 54.7 µM
CC[C@H](C)[C@H](NC(=O)[C@H](CC(C)C)NC(=O)[C@H](CCCNC(=N)N)NC(=O)c1cn(C)c(-c2ccccc2)n1)C(=O)N[C@@H](Cc1ccccc1)C(N)=O (X8-RLIF-NH2); > 180 µM
CC[C@H](C)[C@H](NC(=O)[C@H](CC(C)C)NC(=O)[C@H](CCCNC(=N)N)NC(=O)c1nc(C)n(-c2cccc(Cl)c2)n1)C(=O)N[C@@H](Cc1ccccc1)C(N)=O (X16-RLIF-NH2); 26.5 µM
Cc1nc(C(=O)N[C@@H](CCCNC(=N)N)C(=O)N[C@@H](CC(C)C)C(=O)NCc2cc(Oc3ccc(F)cc3)ccn2)nn1-c1ccc(Cl)cc1; > 200 µM

Below: the item to evaluate.
What measured IC50 is associated with CC[C@H](C)[C@H](NC(=O)[C@H](CC(C)C)NC(=O)[C@H](CCCNC(=N)N)NC(=O)c1cc(C)n(-c2cc(Cl)cc(Cl)c2)n1)C(=O)N[C@@H](Cc1ccccc1)C(N)=O (X17-RLIF-NH2) on Cyclin-dependent kinase 4/cyclin D1 (Homo sapiens, UniProt P11802)? > 100 µM
